// data source = patent US20260337153A1

Entries and their Number mean
- Test Summary: LNP average particle size and polydispersity by dynamic light scattering
- Assay type: physicochemical
- Applied Conditions: Table 3, Experiments 1-13; LNP 50% ionizable lipid, 38% cholesterol, 9% DSPC, 3% PEG2K-DMG; sgRNA:mRNA 1:2

Compound	Number mean / nm
CCCCC/C=C\C/C=C\CCCCCCCC(=O)OCC(CCCCCCCCC(=O)OC(CCCCCCCC)CCCCCCCC)COC(=O)OCCCN(C)CC (stereo not drawn)	70
CCCCC/C=C\C/C=C\CCCCCCCC(=O)OCC(CCCCCCCCC(=O)OC(CCCCCCCC)CCCCCCCCC)COC(=O)CCC(CCCCCCCC)OC(=O)NCCN1CCCC1 (stereo not drawn)	64
CCCCCCCCC(CCCCCCCC)OC(=O)CCCC(=O)OCC(COC(=O)CCCC(=O)OC(CCCCCCCC)CCCCCCCC)COC(=O)OCCCN1CCCCC1	59

====

- Test Summary: LNP encapsulation efficiency of RNA (Ribogreen fluorescence assay)
- Assay type: physicochemical
- Applied Conditions: Table 3, Experiment 14; LNP with 3% C13 Ether; sgRNA:mRNA 1:2
Entries and their % E (encapsulation efficiency)

Molecule	Quantity Unit	% E (encapsulation efficiency)
CCCCCCCCC(CCCCCCCC)OC(=O)CCCC(=O)OCC(COC(=O)CCCC(=O)OC(CCCCCCCC)CCCCCCCC)COC(=O)CCCN(C)C [Compound 34]	%	98
CCCCCCCCC(CCCCCCCC)OC(=O)CCCC(=O)OCC(COC(=O)CCCC(=O)OC(CCCCCCCC)CCCCCCCC)OC(=O)NCCN(CC)CC [Compound 35]	%	99
CCCCCCCCC(CCCCCCCC)OC(=O)CCCC(=O)OCC(COC(=O)CCCC(=O)OC(CCCCCCCC)CCCCCCCC)COC(=O)OCCCN(CC)CC [Compound 2]	%	99
CCCCCCCCC(CCCCCCCC)C(=O)OCC(COC(=O)NCCN(CC)CC)COC(=O)C(CCCCCCCC)CCCCCCCC [Compound 40]	%	92
CCCCCCCCC(CCCCCCCC)OC(=O)CCCC(=O)OCC(COC(=O)CCCC(=O)OC(CCCCCCCC)CCCCCCCC)COC(=O)NCCN(CC)CC [Compound 6]	%	98

====

- Test Summary: LNP average particle size and polydispersity by dynamic light scattering
- Type: physicochemical
- Applied Conditions: Table 3, Experiment 14; LNP with 3% C13 Ether; sgRNA:mRNA 1:2

Smiles Structure	Z-avg (nm)
CCCCCCCCC(CCCCCCCC)OC(=O)CCCC(=O)OCC(COC(=O)CCCC(=O)OC(CCCCCCCC)CCCCCCCC)COC(=O)NCCN(CC)CC	73
CCCCCCCCC(CCCCCCCC)OC(=O)CCCC(=O)OCC(COC(=O)CCCC(=O)OC(CCCCCCCC)CCCCCCCC)OC(=O)NCCN(CC)CC	76
CCCCCCCCC(CCCCCCCC)OC(=O)CCCC(=O)OCC(COC(=O)CCCC(=O)OC(CCCCCCCC)CCCCCCCC)COC(=O)CCCN(C)C	69
CCCCCCCCC(CCCCCCCC)OC(=O)CCCC(=O)OCC(COC(=O)CCCC(=O)OC(CCCCCCCC)CCCCCCCC)COC(=O)OCCCN(CC)CC	80
CCCCCCCCC(CCCCCCCC)C(=O)OCC(COC(=O)NCCN(CC)CC)COC(=O)C(CCCCCCCC)CCCCCCCC	57
